procedure_details: Inhibition of Aurora kinase (unknown origin)
Design: species or system Homo sapiens
assay_metric: IC50 (nM)
Numbers only here, please. The scale is nM.

Query: IC50; subject: `CO[C@H](C(=O)N1Cc2[nH]nc(NC(=O)c3ccc(N4CCN(C)CC4)cc3)c2C1)c1ccccc1`
13

---

procedure_details: Plasma concentration in mouse at 30 mg/kg, measured after 1 hr
Format: ADME, organism-based
assay_metric: concentration at 1 h (ng/mL)
Respond with the bare value in ng/mL.

Value lookup for concentration at 1 h; key = Cc1ccc(C(=O)NNC(=O)c2c(C)cccc2Cl)cc1C#Cc1cnc2ccccc2c1 [VODOBATINIB]
4800

---

procedure_details: AUC in BALB/c mouse at 30 mg/kg, po via gavage
Type: ADME, organism-based
Parameters: dose 30 mg/kg, route po
test_settings: in vivo
assay_metric: AUC
Put your answer as a value accompanied by its unit after it.

If you can, please state the reported AUC value of Cc1ccc(NC(=O)c2ccc(CN3CC[C@H](N(C)C)C3)c(C(F)(F)F)c2)cc1Nc1nccc(-c2cncnc2)n1 [BAFETINIB] .
2290 ng·h/mL

---

target_of_assay: Tyrosine-protein kinase ABL1 (Homo sapiens, UniProt P00519, T315I)
procedure_details: Inhibition of Abl T315I mutant (unknown origin)
assay_metric: IC50

I am curious: what IC50 value has been reported for CC(C)c1cc(CNc2nc(Nc3cc(C4CC4)[nH]n3)cc(N3CCN(C)CC3)n2)on1 [XL-228] ?
14 nM

---

target_of_assay: BCR/ABL1 (Mus musculus, UniProt P00520, T315I)
Sequence (P00520 whole entry T315I, looked up): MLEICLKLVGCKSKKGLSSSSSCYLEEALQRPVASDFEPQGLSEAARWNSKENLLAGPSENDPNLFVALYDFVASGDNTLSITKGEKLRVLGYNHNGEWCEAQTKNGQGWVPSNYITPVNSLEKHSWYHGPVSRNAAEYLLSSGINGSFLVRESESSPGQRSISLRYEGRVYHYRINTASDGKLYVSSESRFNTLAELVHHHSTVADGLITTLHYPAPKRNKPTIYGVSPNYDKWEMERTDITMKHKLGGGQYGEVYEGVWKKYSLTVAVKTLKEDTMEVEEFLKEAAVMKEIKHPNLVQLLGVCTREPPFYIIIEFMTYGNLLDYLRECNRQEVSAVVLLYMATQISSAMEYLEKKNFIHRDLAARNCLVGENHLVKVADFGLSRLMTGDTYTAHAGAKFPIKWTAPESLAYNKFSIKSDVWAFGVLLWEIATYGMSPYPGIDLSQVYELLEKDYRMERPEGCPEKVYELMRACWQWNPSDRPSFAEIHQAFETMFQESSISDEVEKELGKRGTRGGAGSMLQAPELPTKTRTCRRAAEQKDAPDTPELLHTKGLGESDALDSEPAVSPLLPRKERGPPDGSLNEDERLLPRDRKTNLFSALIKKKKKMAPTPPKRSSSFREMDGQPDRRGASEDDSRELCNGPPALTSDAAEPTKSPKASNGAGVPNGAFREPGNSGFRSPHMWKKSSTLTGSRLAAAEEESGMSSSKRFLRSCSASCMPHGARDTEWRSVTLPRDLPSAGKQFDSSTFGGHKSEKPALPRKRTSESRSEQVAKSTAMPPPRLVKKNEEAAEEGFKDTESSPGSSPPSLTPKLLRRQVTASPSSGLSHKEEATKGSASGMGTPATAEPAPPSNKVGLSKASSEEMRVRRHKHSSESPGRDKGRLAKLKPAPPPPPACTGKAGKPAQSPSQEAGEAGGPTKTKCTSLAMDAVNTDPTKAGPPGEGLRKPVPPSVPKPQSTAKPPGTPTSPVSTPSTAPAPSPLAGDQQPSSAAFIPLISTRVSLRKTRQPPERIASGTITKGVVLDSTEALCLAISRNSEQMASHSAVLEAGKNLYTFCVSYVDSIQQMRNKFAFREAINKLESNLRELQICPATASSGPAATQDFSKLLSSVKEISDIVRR
procedure_details: Inhibition of BCR-ABL T315I mutant phosphorylation in mouse BaF3 cells incubated for 4 hrs by immunoblotting analysis
assay_metric: IC50 (µM)
API: value field is a number in µM; no unit string.

Under BCR/ABL1 (Mus musculus, UniProt P00520, T315I): IC50 value of Cc1ccc(C(=O)NNC(=O)c2c(C)cccc2Cl)cc1C#Cc1cnc2ccccc2c1 [VODOBATINIB] ?
1.97

---

target_of_assay: Bcr/Abl fusion protein (Homo sapiens)
procedure_details: Inhibition of BCR-ABL (unknown origin)
Format: protein assay
assay_metric: IC50 (nM)
A number alone suffices; assume nM.

Look up IC50 for this compound: Cc1cn(-c2cc(NC(=O)c3ccc(C)c(Nc4nccc(-c5cnccn5)n4)c3)cc(C(F)(F)F)c2)cn1 [RADOTINIB]
1.2
